# methodSummary: NCI Yeast Anticancer Drug Screen. Data for the sgs1 mgt1 strain (AID 161)
# experimentalConditions: S. cerevisiae sgs1 mgt1 strain, at 50.0 µM
# Description: Growth inhibition of yeast strains with defined genetic alterations is measured as a screen for potential anti-cancer activity. Selected strains with alterations in DNA damage repair or cell cycle control were exposed to compounds and growth inhibition was measured relative to vehicle treated controls. The strain used in this assay is sgs1 mgt1
This is part of a sample that, as a whole, favours compounds with a hit. Of some 79,000 tested, about 15% had one in any assay. Active and inactive are the calls of the source. Rule as the data show it: active = growth inhibition above about 70%; inactive = the rest.
Pick from t = active, f = inactive when you respond.

compound	cat
CC(=O)N1c2ccccc2C2=NN=C(N(C)C)SC21 (stereo not given)	t
CC(=O)OC1(c2ccccc2)N=C(c2ccccc2)N=C1c1ccccc1 (stereo not given)	f
Cc1ccsc1/C=N/Nc1ccc2ccccc2n1	t
CC(=O)OC1(C)C(=C(Cl)Cl)C2c3ccccc3C1c1ccccc12 (stereo not given)	t

Given O=C(N/C(=C\c1ccccc1Cl)c1nc2ccccc2s1)c1ccccc1 , state the outcome it received in this test.
t

Given CCOC(=O)c1c(C)[nH]c(CO)c1C , state the outcome it received in this test.
f

Given CCCN1C(=O)c2ccccc2C1=O , state the outcome it received in this test.
f

Given COc1ccc2c(c1)[n+]([O-])c(-c1ccccc1)c(N)[n+]2[O-] , state the outcome it received in this test.
t

Given COC(=O)[C@H]1O[C@H]1c1ccncc1 , state the outcome it received in this test.
f

Given NC(=S)N/N=C/c1ccc(Cl)s1 , state the outcome it received in this test.
f

Given CCN(CC)CCNCc1ccccc1 , state the outcome it received in this test.
f

Given C/C(=C/c1ccccc1)C(=O)C1C(c2ccccc2)CC(O)C(C)C1c1ccccc1 (stereo not given) , state the outcome it received in this test.
t

Given O=C(NC(=S)Nc1ncc([N+](=O)[O-])s1)c1ccccc1C(=O)NC(=S)Nc1ncc([N+](=O)[O-])s1 , state the outcome it received in this test.
t

Given Cc1cc(/C=C/c2cccc[n+]2C)c(C)n1-c1ccccc1 , state the outcome it received in this test.
t

Given COC1CCC(O)C(CO)O1 (stereo not given) , state the outcome it received in this test.
t

Given O=C(O/N=C1/CCC/C1=C\c1ccccc1)c1ccccc1 , state the outcome it received in this test.
t

Given Cc1nc2sc3c(c2c2nnnn12)CCCC3 , state the outcome it received in this test.
f

Given O=C(O)/C(Cl)=C(\Cl)C(=O)Nc1cccc(C(F)(F)F)c1 , state the outcome it received in this test.
t

Given CCC[CH2][Sn]([CH2]CCC)([S]/C(C#N)=N/N=C/c1ccc(N(C)C)cc1)[S]/C(C#N)=N/N=C/c1ccc(N(C)C)cc1 , state the outcome it received in this test.
t

Given CC(CO)[C@H]1OC(=O)C=C2[C@@]13O[C@@H]3[C@H]1OC(=O)[C@@]3(C)[C@H]4O[C@H]4C[C@@]2(C)[C@@H]13 (stereo not given in full) , state the outcome it received in this test.
t

Given O=C(Nc1ccccc1)c1ccc(Cl)cc1Cl , state the outcome it received in this test.
f

Given CC1OC(OC2C(OC3CCC4(C)C(CCC5(C)C4CC=C4C6CC(C)(C)CCC6(CO)C(O)CC45C)C3(C)C)OC(C(=O)O)C(OC3OC(COC4OC(CO)C(O)C(O)C4O)C(O)C(O)C3O)C2O)C(O)C(O)C1O (stereo not given) , state the outcome it received in this test.
t

Given Cc1ccc(N=C(N)NN=C(c2ccc(Cl)cc2)c2ccc(Cl)cc2)cc1 , state the outcome it received in this test.
f
